Quick note: these are pIC50 numbers for system: Branched-chain-amino-acid aminotransferase, mitochondrial (Homo sapiens, UniProt O15382)
Sequence (O15382 whole entry): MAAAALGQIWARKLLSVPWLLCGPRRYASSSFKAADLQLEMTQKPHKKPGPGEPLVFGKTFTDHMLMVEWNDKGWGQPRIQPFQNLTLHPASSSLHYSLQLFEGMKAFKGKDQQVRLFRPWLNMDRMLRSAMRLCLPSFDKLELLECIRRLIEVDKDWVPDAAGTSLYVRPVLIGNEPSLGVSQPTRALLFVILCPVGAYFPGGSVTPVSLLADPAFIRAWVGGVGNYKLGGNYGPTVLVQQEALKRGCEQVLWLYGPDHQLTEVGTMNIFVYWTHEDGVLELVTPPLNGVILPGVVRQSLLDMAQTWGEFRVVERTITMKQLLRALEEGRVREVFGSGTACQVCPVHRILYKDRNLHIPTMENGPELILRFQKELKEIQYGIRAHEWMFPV
Reminder that pIC50 means the negative base-10 logarithm of the concentration expressed in mol/L.

CNC(=O)c1ccc(-c2cccc(C(=O)O)c2)cc1OC1CCN(C(=O)c2ccc(Br)s2)C1 (stereo not given) :: 4.13
CNC(=O)c1ccc(-c2ccccc2NS(C)(=O)=O)cc1OC1CCN(C(=O)c2ccc(Br)s2)C1 (racemic) :: 5.41

Attention now turns to another entry.
Returns the measured pIC50 for the input compound. Input: CNC(=O)c1ccc(-c2ccccc2NS(C)(=O)=O)cc1O[C@@H]1CCN(C(=O)c2ccc(Cl)s2)C1
5.55

Origin of values: ChEMBL document CHEMBL3621062
